# credit: patent US20240174622A1

- Tested on: LNCaP tumor-transplanted mouse
- procedure-details: Internal radioactivity distribution using LNCaP tumor-transplanted mouse
- Assay type: in vivo
- condition-label: 24 h after administration
Quick reference for Heart among some compounds
Numbers only here, please. The scale is % ID/g.

// known answers, use as guide
{"columns": ["compound", "Heart, % ID/g"],
 "data": [
  ["O=C([O-])CN(CCN(CCc1ccc(NC(=O)[C@H](CCCCNC(=O)CCC(=O)NCCCC[C@H](NC(=O)N[C@@H](CCC(=O)O)C(=O)O)C(=O)O)NC(=O)CCCc2ccc(I)cc2)cc1)CCN(CC(=O)[O-])Cc1cccc(C(=O)[O-])n1)Cc1cccc(C(=O)[O-])n1.[111In+3] [[^111In]In-Neunpa-2]", 0.79],
  ["O=C([O-])CN(Cc1cccc(C(=O)[O-])n1)C[C@H](Cc1ccc(NC(=O)[C@H](CCCCNC(=O)CCC(=O)NCCCC[C@H](NC(=O)N[C@@H](CCC(=O)O)C(=O)O)C(=O)O)NC(=O)CCCc2ccc(I)cc2)cc1)N(CC(=O)[O-])Cc1cccc(C(=O)[O-])n1.[111In+3] [[^111In]In-Octapa-2]", 0.33],
  ["O=C([O-])CN(Cc1cccc(C(=O)[O-])n1)C[C@H](Cc1ccc(NC(=O)CCCCCNC(=O)CCC(=O)NCCCC[C@H](NC(=O)N[C@@H](CCC(=O)O)C(=O)O)C(=O)O)cc1)N(CC(=O)[O-])Cc1cccc(C(=O)[O-])n1.[111In+3] [[^111In]In-Octapa-1, reference compound]", 0.04]
]}

Below: the item to evaluate.
I am curious: what Heart value has been reported for O=C([O-])CN1CCN(C(CCC(=O)NCCCC[C@H](NC(=O)N[C@@H](CCC(=O)O)C(=O)O)C(=O)O)C(=O)[O-])CCN(CC(=O)[O-])CCN(C(CCC(=O)N[C@@H](CCCCNC(=O)CCCc2ccc(I)cc2)C(=O)O)C(=O)[O-])CC1.[111In+3] (stereo partly shown) [[^111In]In-PSMA-DA1] ?
4.26

----------
- Test system: LNCaP tumor-transplanted mouse
- procedure-details: Internal radioactivity distribution using LNCaP tumor-transplanted mouse
- Assay type: in vivo
- condition-label: 1 h after administration
Quick reference for Blood among some molecules
Numbers only here, please. The scale is % ID/g.

// known answers, use as guide
{"columns": ["molecule", "measured-parameter", "readout-units", "quantitative-readout"],
 "data": [
  ["O=C([O-])CN1CCN(C(CCC(=O)NCCCC[C@H](NC(=O)N[C@@H](CCC(=O)O)C(=O)O)C(=O)O)C(=O)[O-])CCN(CC(=O)[O-])CCN(C(CCC(=O)Nc2ccccc2)C(=O)[O-])CC1.[111In+3] (stereo partly shown) [[^111In]In-PSMA-DB, reference compound]", "Blood", "% ID/g", 3.33],
  ["O=C([O-])CN(Cc1cccc(C(=O)[O-])n1)C[C@H](Cc1ccc(NC(=O)CCCCCNC(=O)CCC(=O)NCCCC[C@H](NC(=O)N[C@@H](CCC(=O)O)C(=O)O)C(=O)O)cc1)N(CC(=O)[O-])Cc1cccc(C(=O)[O-])n1.[111In+3] [[^111In]In-Octapa-1, reference compound]", "Blood", "% ID/g", 0.48]
]}

I am curious: what Blood value has been reported for O=C([O-])CN(Cc1cccc(C(=O)[O-])n1)C[C@H](Cc1ccc(NC(=O)[C@H](CCCCNC(=O)CCC(=O)NCCCC[C@H](NC(=O)N[C@@H](CCC(=O)O)C(=O)O)C(=O)O)NC(=O)COCCOCCOCC(=O)N[C@@H](CCCCNC(=O)CCCc2ccc(I)cc2)C(=O)O)cc1)N(CC(=O)[O-])Cc1cccc(C(=O)[O-])n1.[111In+3] [[^111In]In-Octapa-3] ?
27.2

Follow-up item: O=C([O-])CN1CCN(C(CCC(=O)NCCCC[C@H](NC(=O)N[C@@H](CCC(=O)O)C(=O)O)C(=O)O)C(=O)[O-])CCN(CC(=O)[O-])CCN(C(CCC(=O)N[C@@H](CCCCNC(=O)CCCc2ccc(I)cc2)C(=O)O)C(=O)[O-])CC1.[111In+3] (stereo partly shown) [[^111In]In-PSMA-DA1]
31.1

Follow-up item: O=C(O)CC[C@H](NC(=O)N[C@@H](CCCCNC(=O)[C@H](Cc1ccc2ccccc2c1)NC(=O)[C@H]1CC[C@H](CNC(=O)CCC(C(=O)O)N2CCN(CC(=O)O)CCN(C(CCC(=O)N[C@@H](CCCCNC(=O)CCCc3ccc(I)cc3)C(=O)O)C(=O)O)CCN(CC(=O)O)CC2)CC1)C(=O)O)C(=O)O (stereo partly shown) [[^111In]In-PSMA-NAT-DA1, metal not drawn]
39.8

Follow-up item: O=C([O-])CN(Cc1cccc(C(=O)[O-])n1)C[C@H](Cc1ccc(NC(=O)[C@H](CCCCNC(=O)CCC(=O)NCCCC[C@H](NC(=O)N[C@@H](CCC(=O)O)C(=O)O)C(=O)O)NC(=O)CCCc2ccc(I)cc2)cc1)N(CC(=O)[O-])Cc1cccc(C(=O)[O-])n1.[111In+3] [[^111In]In-Octapa-2]
14.4

Follow-up item: O=C([O-])CN(CCN(CCc1ccc(NC(=O)[C@H](CCCCNC(=O)CCC(=O)NCCCC[C@H](NC(=O)N[C@@H](CCC(=O)O)C(=O)O)C(=O)O)NC(=O)CCCc2ccc(I)cc2)cc1)CCN(CC(=O)[O-])Cc1cccc(C(=O)[O-])n1)Cc1cccc(C(=O)[O-])n1.[111In+3] [[^111In]In-Neunpa-2]
13.6
